- system.under.test: T1, Dimeric Monkey Ang-2FD conjugated to human IgG1 (monkey (Macca fascicularis); human)
- T1 construct: also called Monkey Ang-2FD-hFc
- measurement.description: competition ELISA, 16.67 nM Ab, coated hTie-2-mFc
Kindly supply the reported Percent Blocking of Ang-2FD Binding to Tie-2 values for the records listed here.

1. H2M749N (antibody, V domains shown, also called H1M749N; H1M749) VH: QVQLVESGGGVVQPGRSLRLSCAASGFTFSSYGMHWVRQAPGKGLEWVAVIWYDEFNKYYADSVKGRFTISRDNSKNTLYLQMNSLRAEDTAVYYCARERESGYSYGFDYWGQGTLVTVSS VL: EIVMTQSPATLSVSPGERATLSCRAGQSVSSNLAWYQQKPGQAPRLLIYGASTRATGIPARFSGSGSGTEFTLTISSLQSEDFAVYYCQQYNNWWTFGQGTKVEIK: 97.4%
2. H2M730N (antibody, V domains shown) VH: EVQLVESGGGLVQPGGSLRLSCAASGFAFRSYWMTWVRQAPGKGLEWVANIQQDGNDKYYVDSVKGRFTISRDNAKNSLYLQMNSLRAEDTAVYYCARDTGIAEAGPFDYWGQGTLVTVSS VL: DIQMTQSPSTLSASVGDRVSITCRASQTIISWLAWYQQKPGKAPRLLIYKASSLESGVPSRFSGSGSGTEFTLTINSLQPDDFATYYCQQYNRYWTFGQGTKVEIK: 97.3%

Here's the next entry for you.
Query :: Request the reported Percent Blocking of Ang-2FD Binding to Tie-2 associated with H2M743N (antibody, V domains shown) VH: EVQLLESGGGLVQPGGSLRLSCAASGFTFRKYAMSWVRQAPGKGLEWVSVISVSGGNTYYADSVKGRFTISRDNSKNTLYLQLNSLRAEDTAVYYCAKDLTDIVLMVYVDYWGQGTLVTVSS VL: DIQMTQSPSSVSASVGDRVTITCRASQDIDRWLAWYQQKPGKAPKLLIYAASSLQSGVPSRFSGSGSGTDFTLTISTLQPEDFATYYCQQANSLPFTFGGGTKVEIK
Result :: 95.1%
